# %Inh per entry
tested on: MAST1; conditions: concentration: 1 μM,replicates: in singlicate; n = 1;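 also: KINOMEscan kinase panel screen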
observationType: %Inh (%)

compound	assayTarget	observationType	resultValue
O=C(NOCC1CC1)c1cc(Br)c(F)c(F)c1Nc1ccc(I)cc1Cl	MAST1	%Inh	0
CC(=O)Nc1nc2cnc(Nc3cc(NC(=O)c4cccc(CC(C)(C)C#N)c4)ccc3C)nc2s1	MAST1	%Inh	53
OCCn1cc(-c2cnc3nnn(Cc4ccc5ncccc5c4)c3n2)cn1	MAST1	%Inh	0
Cl.c1ccc(Oc2ccc(Nc3ccnc4cc(-c5ccc(CN6CCNCC6)o5)ccc34)cc2)nc1 [GW567142]	MAST1	%Inh	0

====

test system: DDR1; conditions: concentration: 1 μM,replicates: in singlicate; n = 1
observationType: %Inh (%)

structureString	resultValue
CCN1CCN(CCCC(=O)Nc2n[nH]c3nc(-c4ccc(O)cc4)c(Br)cc23)CC1	38
CS(=O)(=O)c1cccc(CNc2nc(Nc3ccc4c(c3)[C@@H]3C[C@@H]4CNC3=O)ncc2C(F)(F)F)c1	0
O=C1NCCc2[nH]c(-c3ccncc3)cc21	17

====

tested on: JNK1; construct: gene MAPK8; settings: concentration: 1 μM,replicates: in singlicate; n = 1
observationType: %Inh (%)

molecule	resultValue
Cc1nnc(-c2ccc3occ(-c4ccc(S(C)=O)cc4)c3n2)o1 (centres unmarked)	0
COC(=O)Nc1nc2cc(Oc3ccc(NC(=O)Nc4cc(C(F)(F)F)ccc4Cl)cc3)ccc2[nH]1.Cl	20
C[C@@H]1CCN(C(=O)N2CCCC2)C[C@@H]1N(C)c1ncnc2[nH]ccc12	14
Cn1ccc2ncnc(Oc3ccc(NC(=O)Nc4cnn(C(C)(C)C)c4)c(Cl)c3)c21	2
CCN1CCN(CCCC(=O)Nc2n[nH]c3nc(-c4ccc(O)cc4)c(Br)cc23)CC1	55
CCNCC(Cc1ccccc1)NC(=O)c1cc(Br)c(-c2ccnc3[nH]ccc23)s1.Cl.Cl (centres unmarked)	33
CN(c1ccc2c(c1)nc(NCc1ccc(F)cc1)n2C)c1ccnc(Nc2ccc(CS(C)(=O)=O)cc2)n1.Cl	42
O=C1NCCc2[nH]c(-c3ccncc3)cc21	30
COc1cc(Nc2nccc(N3CCC(NC(=O)c4cccc(C#N)c4)C3)n2)cc(OC)c1OC (centres unmarked)	30
COc1cccc(CNC(=O)NC2CCN(c3ccnc(Nc4cc(OC)c(OC)c(OC)c4)n3)C2)c1 (centres unmarked)	29
Cl.c1ccc(Oc2ccc(Nc3ccnc4cc(-c5ccc(CN6CCNCC6)o5)ccc34)cc2)nc1	0
Cn1ccc2ncnc(Oc3ccc(NC(=O)Nc4cncc(C(F)(F)F)c4)c(Cl)c3)c21	0
Nc1nccc(-c2ccc3c(N)n[nH]c3c2)n1	20
CC(=O)Nc1ccc(-c2cc3ncnc(SCC(=O)O)c3s2)cc1	7
c1ccc(Oc2ccc(Nc3ccnc4ccc(-c5ccccn5)cc34)cc2)cc1	20
COC(=O)c1cccc(NC(=O)NC2CCN(c3ccnc(NCc4ccc(F)cc4)n3)CC2)c1	7
CN1CCN(CCCNc2nccc(-c3c(-c4ccc(F)cc4)nn4cc(C(N)=O)ccc34)n2)CC1	92.1
Cn1ccc2ncnc(Oc3ccc(NC(=O)Nc4cccc(C(F)(F)F)c4)c(F)c3)c21	11
C[C@@H](Oc1cc(-n2cnc3cc(-c4ccncc4)ccc32)sc1C(N)=O)c1ccccc1Cl	7
O=C(NOCC1CC1)c1cc(Br)c(F)c(F)c1Nc1ccc(I)cc1Cl	12
O=c1[nH]cc(-c2ccc(O)cc2)c2sc(-c3ccncc3)cc12	0
CN(c1ccccc1CNc1nc(Nc2ccc3c(c2)CC(=O)N3)ncc1C(F)(F)F)S(C)(=O)=O	64
Cn1ccc2ncnc(Oc3ccc(NC(=O)Nc4cc(C(C)(C)C)on4)c(Cl)c3)c21	12
O=C(Nc1cccc(Oc2ccc3nccn3n2)c1)Nc1cccc(C(F)(F)F)c1	0
CSc1nccc(-c2c(-c3ccc(F)cc3)ncn2CCCN2CCOCC2)n1.Cl	10
Cc1ccn2nc(-c3ccc(F)cc3)c(-c3ccncc3)c2c1.Cl	43
NC(=O)c1ccc(-c2cc3ncnc(SCC(=O)O)c3s2)cc1	22
Cc1n[nH]c2cc(Nc3ccnc(Nc4cccc(CN5CCOCC5)c4)n3)ccc12	96.2
CS(=O)c1ccc(-c2coc3ccc(-c4n[nH]c(=O)o4)cc23)cc1 (centres unmarked)	23
